molecular target: Amaranthus palmeri cytosolic GS1.1 V161S; assay: GS enzyme inhibition assay, GS1.1 V161S; conditions: read-out: Glufosinate‐ammonium IC50
value.kind: pIC50
// returns pIC50 (minus log10 of molar concentration), number only

Please look at this molecule and report its pIC50: CP(=O)(O)CCC(N)C(=O)O (stereo not shown) [Glufosinate‐ammonium]
4.41

* * *

molecular target: Amaranthus palmeri cytosolic GS1.1 K36A; experiment: GS enzyme inhibition assay, GS1.1 K36A; conditions: read-out: Glufosinate‐ammonium IC50
value.kind: pIC50
// returns pIC50 (minus log10 of molar concentration), number only

Please look at this compound and report its pIC50: CP(=O)(O)CCC(N)C(=O)O (stereo not shown) [Glufosinate‐ammonium]
3.61
